The values you see were collected from ChEMBL document CHEMBL4513216.

# protocol_details: Toxicity liver stage against HepG2, at 10uM
# Assay type: cell-based
# Design: test concentration 10 uM, cell line HepG2-A16-CD81EGFP
# reported_conditions: human, HepG2-A16-CD81EGFP cells; read-out: INHIBITION
Each entry below lists one item and its recorded cytotoxicity at 10 µM value.
reported_metric: cytotoxicity at 10 µM (%)

* CC(C)c1nc(C2CCCN(C(=O)Cn3ccccc3=O)C2)no1 (configuration not stated) | -16.3
* Cc1cc(N(C)CC2COc3ccccc3O2)nc(C)n1 (configuration not stated) | 38.7
* COc1ncccc1C(=O)N1CCC2(CC1)CC(OC)CO2 (configuration not stated) | -97
* CN1CCC2(CC1)CN(CC1CC1)CC21CCNC1=O (configuration not stated) | 2.02
* Cc1cccc(COc2ccc(NC(=O)C(C)NC(N)=O)c(C)c2)c1 (configuration not stated) | -28
* COc1cc(CNC(=O)Nc2cc(C(F)(F)F)c[nH]c2=O)ccn1 | 1.53
* COCCc1noc(CN2CCN(CC(O)c3ccccc3)CC2)n1 (configuration not stated) | 2.67
* N#Cc1c(SCCN2CCCCCC2)sc2c(O)cc(O)nc12 | -10.5
* CNC(=O)[C@@H]1[C@H]2CN(Cc3ccoc3)CCN2C[C@H]1c1ccccc1 | 4.06
* Cn1cc(CN2CCC(c3cc(COc4cccc(Cl)c4)[nH]n3)C2)cn1 (configuration not stated) | -2.93
* CC(=O)Nc1ccc(CNC2CCCSC2)cc1 (configuration not stated) | -10.5
* O=C(c1nc(N2CCCC2)ncc1Cl)N1CCN(Cc2ccsc2)CC1 | -56
* Cn1ccnc1CN1CCc2onc(COCC3CC3)c2C1 | 6.86
* Cc1cc(F)c2c(c1)CCCN2Cc1nc2c(cnn2C)c(=O)[nH]1 | 1.89
* O=C(NC1CC1)c1cccc(S(=O)(=O)NCCc2nc(C3CC3)no2)c1 | -0.714
* c1ccc(-c2n[nH]c(CCNc3nnc(C4CCC4)o3)n2)cc1 | 0.677
* CC(C)N1CCCC(Cc2nccnc2Cl)C1 (configuration not stated) | -3.22
* CCOc1ccc(CCCC(=O)N2CCC(c3nnn[nH]3)CC2)cc1C | -3.57
* CC(=O)N1C[C@H](NS(=O)(=O)N2CCOCC2)[C@@H](c2ccc(C)o2)C1 | -1.43
* CCC(C(=O)NC)N(c1cccc(C)c1)S(C)(=O)=O (configuration not stated) | -11.8
* O=S(=O)(Cc1ccc(F)cc1)NCc1ccco1 | 14.1
* CCN(C)c1ncnc2c1CCN(C(=O)c1cccn1C)CC2 | -67.8
* Cc1cnc(CNC(=O)[C@@H]2CC[C@@H]3[C@@H](CCN3Cc3ccco3)O2)cn1 | 0.296
* CO[C@H]1CCN(c2ncc(F)cn2)[C@@H]2CN(Cc3ccco3)C[C@H]12 | 13.5
* O=C(COc1ccccc1)N1CCCC1c1ccc[nH]1 (configuration not stated) | -0.575
* O=C(Cc1ccn[nH]1)N1CCc2cc(Br)sc2C1 | 4.42
* COCCN1CCN(Cc2ccc3nsnc3c2)[C@H]2CS(=O)(=O)C[C@H]21 | -5.94
* CC(C)N(C)CC(=O)Nc1nccn1Cc1ccccc1Cl | 0.0646
* O=C(NCCSc1ccccc1F)NCc1cccnc1 | -5.31
* CCCOc1cc(CNC(=O)Nc2ccccn2)ccn1 | -2.25
* CCc1ccc(S(=O)(=O)N2CCCC3(CCCN3S(C)(=O)=O)C2)cc1 (configuration not stated) | -2.98
* CCC(Nc1cccc(OC)c1)C(=O)NCc1ccc2[nH]c(=O)[nH]c2c1 (configuration not stated) | 1.67
